I'd appreciate it if you could supply Kd values for the items below.
Target: T1, rhesus monkey TfR ectodomain fused to a mouse IgG1 Fc fragment (rhesus monkey, UniProt I0FKY7 89-760)
T1 construct: extracellular domain; not shown: mouse IgG1 Fc fragment
Assay: SPR, at equilibrium
Method: Binding properties of some VHHs were also evaluated using Surface Plasmon Resonance (SPR) experiments. The human, mouse and rhesus monkey TfR (having respectively GeneBank number NM_003234.2, NM_011638, NC_041755.1) ectodomains were fused to the N-terminal end of a mouse IgG1 Fc fragment and the recombinant proteins were produced and purified in-house. Interaction of VHHs with the receptors was tested using a Biacore T200 (GE Healthcare). […]
Answer with a number only, understood to be in nM.

Request: Could you please provide reported Kd for B8^V16 (VHH) VHH: EVQLVESGGGVVQPGGSLRLSCAASGEIFSINFMRWYRQAPGKQREQVAGFTRDGSTNYPDSAKGRFTISRDNAKNTVYLQIDSLKPEDTAVYYCYMLDTWGQGTQVTVSS ? Thanks!
Result: 222

Request: Name the recorded Kd of the binder listed here: B8^V40 (VHH) VHH: EVQLVESGGGVVQPGGSLRLSCAASGEIKSINFMRWYRQAPGKQREWVSGFTRDGSTNYPDSAKGRFTISRDNAKNTVYLQIDSLKPEDTAVYYCYMLDTWGQGTQVTVSS
Result: 39.8

Request: Consider the binder B8^V34 (VHH) VHH: EVQLVESGGGVVQPGGSLRLSCAASGEIRSINFMRWYRQAPGKQREWVAGFTRDGSTNYPDIAKGRFTISRDNAKNTVYLQIDSLKPEDTAVYYCYMLDTWGQGTQVTVSS and give its recorded Kd.
Result: 49.4

Request: Consider the binder B8^V39 (VHH) VHH: EVQLVESGGGVVQPGGSLRLSCAASGEIFKINFMRWYRQAPGKQREWVAGFTRDGSTNYPDSAKGRFTISRDNAKNTVYLQIDSLKPEDTAVYYCYMLDTWGQGTQVTVSS . State its measured Kd.
Result: 93.3

Numbers sourced from patent US20230414780A1.
